measured-target: human recombinant adrenergic α2A receptor (Homo sapiens)
Construct: expressed in transfected cells; host or cells: insect Sf9 cells
Sequence (P08913 1-465): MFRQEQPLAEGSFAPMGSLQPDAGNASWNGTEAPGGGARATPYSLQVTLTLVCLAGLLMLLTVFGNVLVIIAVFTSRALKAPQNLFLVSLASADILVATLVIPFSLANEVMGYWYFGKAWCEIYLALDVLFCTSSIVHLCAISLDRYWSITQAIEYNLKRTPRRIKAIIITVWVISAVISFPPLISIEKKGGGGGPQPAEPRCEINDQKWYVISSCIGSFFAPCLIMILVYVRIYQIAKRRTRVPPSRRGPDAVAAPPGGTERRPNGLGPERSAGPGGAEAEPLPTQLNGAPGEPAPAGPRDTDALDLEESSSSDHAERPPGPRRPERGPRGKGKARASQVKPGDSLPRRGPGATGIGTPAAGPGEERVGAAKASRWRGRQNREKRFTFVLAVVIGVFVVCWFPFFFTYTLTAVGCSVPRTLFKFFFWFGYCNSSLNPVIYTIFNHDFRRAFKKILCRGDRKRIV
test-details: Radioligand binding, adrenergic α2A ([3H]MK-912)
experimental-conditions: compound at 0.1 μM; [3H]MK-912; repeat datapoints each shown; 0.1 µM
Experimental: To evaluate in radioligand binding assays the activity of compounds of the invention, human recombinant adrenergic α2A receptor expressed in insect Sf9 cells (Uhlen, S. et al, J. Pharmacol. Exp. Ther. 271:1558, 1994) in a modified Tris-HCl buffer (50 mM Tris-HCl, pH 7.4, 12.5 mM MgCl2, 2 mM EDTA) was used. […] Receptor proteins were filtered and washed, the filters were then counted to determine [^3H]MK-912 specifically bound. […]
reported-property: Percentage inhibition of ligand binding, Adrenergic α2A (0.1 μM) (%)

Could you please provide reported Percentage inhibition of ligand binding, Adrenergic α2A (0.1 μM) for Cc1cc(C)c2c(c1)c1c(n2CC(O)c2ccncc2)CCN2CCCC12 (single isomer, unassigned) [II-125c] ? Thanks!
9

Let me know recorded Percentage inhibition of ligand binding, Adrenergic α2A (0.1 μM) for CN1CCc2c(c3cc(Cl)cnc3n2CC(C)(O)c2ccc(C(F)(F)F)nc2)C1 (single isomer, unassigned) [II-109a] , thanks.
2

Please indicate Percentage inhibition of ligand binding, Adrenergic α2A (0.1 μM) recorded for Cc1cnc2c(c1)c1c(n2CCc2ccncc2)CCN2CCCC12 (single isomer, unassigned) [II-244b]
2

Provide Percentage inhibition of ligand binding, Adrenergic α2A (0.1 μM) value for the following compound: Cc1ccc2c(c1)c1c(n2CC(C)(O)c2cccnc2)C(c2ccccc2)N(C)CC1 (stereo not shown) [II-112b]
3

1: Cc1ccc2c(c1)c1c(n2CC(O)c2ccc(C(N)=O)cc2)CCN(C)C1 (stereo not shown) [compound 139]
2: Cc1cc(C)c2c(c1)c1c(n2CC(O)c2ccncc2)CCN2CCCC12 (single isomer, unassigned) [II-125a]
Hi, I'm comparing 1 with 2 and wondering which one has the bigger number for Percentage inhibition of ligand binding, Adrenergic α2A (0.1 μM). Any idea? // caller expects the label of the chosen entry
2
(2: 62%, 1: −2%)

meta.source: patent US8791132B2
